# system-tested: human Retinoid X Receptor beta (RXRb), RXRB (gene 6257) (UniProt P28702)
# Sequence (P28702 whole entry, looked up): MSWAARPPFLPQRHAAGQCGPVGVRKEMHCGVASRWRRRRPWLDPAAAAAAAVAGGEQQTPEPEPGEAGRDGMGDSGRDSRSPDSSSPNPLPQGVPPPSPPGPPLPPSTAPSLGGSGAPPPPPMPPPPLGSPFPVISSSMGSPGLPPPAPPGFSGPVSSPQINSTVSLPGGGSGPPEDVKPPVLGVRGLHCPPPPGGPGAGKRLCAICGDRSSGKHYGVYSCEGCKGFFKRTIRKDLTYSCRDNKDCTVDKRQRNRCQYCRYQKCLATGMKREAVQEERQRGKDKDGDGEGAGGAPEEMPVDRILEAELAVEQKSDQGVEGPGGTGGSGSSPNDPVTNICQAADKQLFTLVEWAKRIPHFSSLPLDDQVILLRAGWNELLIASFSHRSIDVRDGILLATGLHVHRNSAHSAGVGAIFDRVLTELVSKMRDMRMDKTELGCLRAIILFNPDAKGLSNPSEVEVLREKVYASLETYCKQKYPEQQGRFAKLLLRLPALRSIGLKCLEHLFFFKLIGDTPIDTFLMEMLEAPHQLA
# test-details: ATG_RXRb_TRANS: Attagene TRANS-FACTORIAL HepG2 Assay for human Retinoid X Receptor beta (RXRb) (AID 2283013)
Inconclusive results are not listed. The source made the active and inactive calls. Rule for the calls: active = hit-call score of the fitted dose curve at least 0.9, where 1 is the maximum; inconclusive = response in the unintended direction; inactive = score below 0.9.
A correct response names exactly one class from active, inactive

Incoming: Assay outcome for `C#CC(C)(C)NC(=O)c1cc(Cl)cc(Cl)c1` : what was it?
Outgoing: inactive

Incoming: Repeat with CC(C1CC1)C(O)(Cn1cncn1)c1ccc(Cl)cc1 (centres undefined)
Outgoing: inactive

Incoming: Let us now turn to `COc1ccc(C(=CC(=O)N2CCOCC2)c2ccc(Cl)cc2)cc1OC`
Outgoing: inactive

Incoming: // next record `CN(C)[C@@H]1C(=O)C(C(N)=O)=C(O)[C@@]2(O)C(=O)C3=C(O)c4c(O)cccc4[C@@](C)(O)[C@H]3[C@H](O)[C@@H]12`
Outgoing: inactive

Incoming: Can you check CC(C)=CC1C(C(=O)OCN2C(=O)C3=C(CCCC3)C2=O)C1(C)C (centres undefined) next?
Outgoing: inactive

Incoming: Then `CCNc1nc(Cl)nc(NC(C)(C)C#N)n1` ?
Outgoing: inactive

Incoming: Please give the result for `Nc1c(Cl)cc([N+](=O)[O-])cc1Cl` too.
Outgoing: inactive

Incoming: Next entry: `CCC(CC)Nc1c([N+](=O)[O-])cc(C)c(C)c1[N+](=O)[O-]`
Outgoing: inactive

Incoming: Do the same for `CC(C)[C@H](C(=O)O[C@H](C#N)c1cccc(Oc2ccccc2)c1)c1ccc(Cl)cc1` please
Outgoing: inactive

Incoming: Also need `Cc1cc(C2CC2)nc(Nc2ccccc2)n1` , thanks.
Outgoing: active

Incoming: Repeat for the following compound: `CC(=NC#N)N(C)Cc1ccc(Cl)nc1`
Outgoing: inactive

Incoming: Query `CON=C(C(=O)OC)c1ccccc1CON=C(C)c1cccc(C(F)(F)F)c1` next
Outgoing: inactive

Incoming: Another: `CNc1cnn(-c2cccc(C(F)(F)F)c2)c(=O)c1Cl`
Outgoing: inactive

Incoming: What do we get for CCOP(=S)(OCC)OC(Cl)C(Cl)(Cl)Cl (centres undefined) ?
Outgoing: inactive

Incoming: Also `C=C(C)[C@H]1Cc2c(ccc3c2O[C@@H]2COc4cc(OC)c(OC)cc4[C@@H]2C3=O)O1` , if possible.
Outgoing: inactive

Incoming: Entry to check: `CCCSP(=O)(OCC)SCCC`
Outgoing: inactive

Incoming: Now this one: `CCC(=O)Nc1ccc(Cl)c(Cl)c1`
Outgoing: inactive

Incoming: Can you handle `CNC(=O)ON=C(SC)C(=O)N(C)C` next?
Outgoing: inactive

Incoming: # iterate: `CSc1nnc(C(C)(C)C)c(=O)n1N`
Outgoing: inactive

Incoming: Here is the next compound: `Nc1nc(N)nc(NC2CC2)n1`
Outgoing: inactive

Incoming: Field entry: `CN1COCN(Cc2cnc(Cl)s2)C1=N[N+](=O)[O-]`
Outgoing: inactive

Incoming: What would you report for CCOP(=O)(NC(C)C)Oc1ccc(SC)c(C)c1 (centres undefined) ?
Outgoing: inactive

Incoming: Can you check CCOC(=O)CC(SP(=O)(OC)OC)C(=O)OCC (centres undefined) next?
Outgoing: inactive

Incoming: Do the same for `CC(C)N(C(=O)SCC(Cl)=C(Cl)Cl)C(C)C` please
Outgoing: inactive
